- TEST_NAME: Cmax in male Sprague-Dawley rat at 20 mg/kg, po measured upto 24 hrs by LC-MS/MS analysis
- Assay type: ADME, organism-based
- CONDITION: in vivo
ASSAY_ENDPOINT: Cmax (ng/mL)
Field: numeric (ng/mL). Do not append units.

Using the record for COc1cc(Nc2nc(N3CCN(CCOCCNc4cccc5c4C(=O)N(C4CCC(=O)NC4=O)C5=O)CC3)ncc2F)ccc1NC(=O)c1ccc(C2=CCCC2)s1 (stereo unspecified) , report its Cmax.
703

* * *

- Test system: DOHH-2
- TEST_NAME: Antiproliferative activity against BCL6-dependent human DOHH-2 cells assessed as inhibition in cell growth measured after 6 days by MTS assay
- CONDITION: DOHH-2, 144 h
ASSAY_ENDPOINT: IC50 (nM)
The answer is to be given in nM; state only the numeric part.

Recorded IC50 for COc1cc(Nc2nc(N3CCN(CCOCCNc4cccc5c4C(=O)N(C4CCC(=O)NC4=O)C5=O)CC3)ncc2F)ccc1NC(=O)c1ccc(C2=CCCC2)s1 (configuration not stated) , please?
56.2

Where do the numbers come from? From ChEMBL document CHEMBL5614419.
